molecular target: Tyrosine-protein kinase JAK2 (Homo sapiens, UniProt O60674); test: In Vitro Assays for Determining the Inhibition of Janus Kinases: The in vitro inhibition of recombinant human JAKs was determined as follow.Compounds were tested in LANTHASCREEN™ time-resolved fluorescence energy transfer (TR-FRET) enzymatic assays from Invitrogen. The human Janus kinase 1 (JAK1) used in the assay is the recombinant JAK1 catalytic domain (amino acids 866-1154) expressed and purified from insect cells (Invitrogen, Cat. No. PV4774). The human Janus kinase 2 (JAK2) used in the assay is the recombinant JAK2 catalytic domain (amino acids 808-1132) expressed and purified from insect cells (Invitrogen, Cat. No. PV4210). The human Janus kinase 3 (JAK3) used in the assay is the recombinant JAK3 catalytic domain (amino acids 781-1124) expressed and purified from insect cells (Invitrogen, Cat. No. PV3855). The human tyrosine kinase 2 (TYK2) used in the assay is the recombinant TYK2 catalytic domain (amino acids 833-1187) expressed and purified from insect cells (Invitrogen, Cat. No. PV4790). The substrate is a recombinant STAT1 expressed as a fusion with GFP (Green Fluorescent Protein) to act as a physiological substrate (Invitrogen, Cat. No. PV5211).Test compounds were prepared and diluted in DMSO in 3-fold serial dilutions for 10 doses to 100× of the final testing concentrations. The compounds were then further diluted to 4× by the kinase reaction buffer (Invitrogen, Cat. No. PV3189). The enzymatic reaction for compound testing was performed in a white 384-well polypropylene plate (Packard, Cat. No. 6005214) with a total reaction volume of 10 μL containing 440 ng/mL JAK1, 11 ng/mL JAK2, 400 ng/mL JAK3, or 200 ng/mL TYK2, 100 nM substrate, and 1 mM ATP. The assay started with loading 2.5 μL of JAK1, JAK2, JAK3, or TYK2 diluted in the kinase reaction buffer to wells, followed by addition of an equal volume of 4× compounds for 15-min incubation at room temperature for pre-treatment. The enzymatic reaction was initiated by addition of 5 μL of a mixture of the substrate and ATP prepared in the kinase reaction buffer. After one hour reaction, 10 μL mixture of EDTA (final 10 mM) and terbium-labeled anti-pSTAT1 (pTyr701) antibody (final 2 nM) (Invitrogen, Cat. No. PV4844) prepared in TR-FRET antibody dilution buffer (Invitrogen, Cat. No. PV3574) was added to stop the enzymatic reaction and produce TR-FRET signals. After 30 minutes of incubation at room temperature, the plate was read in Tecan Infinite F200 Pro with the following settings: Excitation 340 nm (30)/Emission1 495 nm (10)/Emission2 520 nm (25). The TR-FRET values were dimensionless numbers that were calculated as the ratio of the acceptor (Green Fluorescent Protein) signal to the donor (Terbium) signal. Percent of inhibition was calculated as (100%−percentage of compound-treated/DMSO vehicle-treated). The dose-response curves were generated and the IC50s were calculated by nonlinear sigmoid curve fitting using GraphPad Prism.
Sequence (O60674 whole entry, the tested form may be a part): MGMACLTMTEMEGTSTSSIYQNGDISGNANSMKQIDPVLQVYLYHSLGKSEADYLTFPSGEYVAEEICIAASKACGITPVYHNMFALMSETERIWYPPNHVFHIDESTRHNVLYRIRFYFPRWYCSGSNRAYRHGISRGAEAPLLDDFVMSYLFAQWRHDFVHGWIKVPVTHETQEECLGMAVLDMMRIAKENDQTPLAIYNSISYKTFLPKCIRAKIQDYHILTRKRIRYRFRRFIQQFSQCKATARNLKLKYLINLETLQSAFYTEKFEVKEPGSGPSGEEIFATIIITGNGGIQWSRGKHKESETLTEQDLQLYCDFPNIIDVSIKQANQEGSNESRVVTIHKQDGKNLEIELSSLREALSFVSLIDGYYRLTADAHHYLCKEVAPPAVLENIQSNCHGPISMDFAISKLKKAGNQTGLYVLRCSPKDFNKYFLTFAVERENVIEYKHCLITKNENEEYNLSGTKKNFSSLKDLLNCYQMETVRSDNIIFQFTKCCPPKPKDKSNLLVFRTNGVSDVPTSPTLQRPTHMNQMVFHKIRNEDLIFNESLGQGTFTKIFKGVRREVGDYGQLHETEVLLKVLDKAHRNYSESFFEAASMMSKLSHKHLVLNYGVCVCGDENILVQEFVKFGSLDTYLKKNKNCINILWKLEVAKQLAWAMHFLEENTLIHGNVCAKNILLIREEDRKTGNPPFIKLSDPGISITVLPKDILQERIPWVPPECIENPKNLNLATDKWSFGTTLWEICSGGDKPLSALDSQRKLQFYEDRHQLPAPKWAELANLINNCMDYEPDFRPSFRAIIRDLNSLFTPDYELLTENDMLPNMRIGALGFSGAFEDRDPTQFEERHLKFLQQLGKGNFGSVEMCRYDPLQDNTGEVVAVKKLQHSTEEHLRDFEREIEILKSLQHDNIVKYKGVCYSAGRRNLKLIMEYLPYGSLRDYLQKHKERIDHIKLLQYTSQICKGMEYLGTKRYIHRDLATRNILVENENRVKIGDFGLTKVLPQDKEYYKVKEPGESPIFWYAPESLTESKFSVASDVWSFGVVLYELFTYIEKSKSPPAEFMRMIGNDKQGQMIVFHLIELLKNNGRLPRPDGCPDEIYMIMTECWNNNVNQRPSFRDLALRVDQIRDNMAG
pIC50: −log10 of the molar value.
metric: pIC50

-- ask Identify measured pIC50 corresponding to N#CC1(c2ccc(-c3cccc4nc(NC(=O)C5CC5)cn34)cc2)CC1
-- reply < 5.30

---

target: Tyrosine-protein kinase JAK1 (Homo sapiens); experiment: In Vitro Assays for Determining the Inhibition of Janus Kinases: The in vitro inhibition of recombinant human JAKs was determined as follow.Compounds were tested in LANTHASCREEN™ time-resolved fluorescence energy transfer (TR-FRET) enzymatic assays from Invitrogen. The human Janus kinase 1 (JAK1) used in the assay is the recombinant JAK1 catalytic domain (amino acids 866-1154) expressed and purified from insect cells (Invitrogen, Cat. No. PV4774). The human Janus kinase 2 (JAK2) used in the assay is the recombinant JAK2 catalytic domain (amino acids 808-1132) expressed and purified from insect cells (Invitrogen, Cat. No. PV4210). The human Janus kinase 3 (JAK3) used in the assay is the recombinant JAK3 catalytic domain (amino acids 781-1124) expressed and purified from insect cells (Invitrogen, Cat. No. PV3855). The human tyrosine kinase 2 (TYK2) used in the assay is the recombinant TYK2 catalytic domain (amino acids 833-1187) expressed and purified from insect cells (Invitrogen, Cat. No. PV4790). The substrate is a recombinant STAT1 expressed as a fusion with GFP (Green Fluorescent Protein) to act as a physiological substrate (Invitrogen, Cat. No. PV5211).Test compounds were prepared and diluted in DMSO in 3-fold serial dilutions for 10 doses to 100× of the final testing concentrations. The compounds were then further diluted to 4× by the kinase reaction buffer (Invitrogen, Cat. No. PV3189). The enzymatic reaction for compound testing was performed in a white 384-well polypropylene plate (Packard, Cat. No. 6005214) with a total reaction volume of 10 μL containing 440 ng/mL JAK1, 11 ng/mL JAK2, 400 ng/mL JAK3, or 200 ng/mL TYK2, 100 nM substrate, and 1 mM ATP. The assay started with loading 2.5 μL of JAK1, JAK2, JAK3, or TYK2 diluted in the kinase reaction buffer to wells, followed by addition of an equal volume of 4× compounds for 15-min incubation at room temperature for pre-treatment. The enzymatic reaction was initiated by addition of 5 μL of a mixture of the substrate and ATP prepared in the kinase reaction buffer. After one hour reaction, 10 μL mixture of EDTA (final 10 mM) and terbium-labeled anti-pSTAT1 (pTyr701) antibody (final 2 nM) (Invitrogen, Cat. No. PV4844) prepared in TR-FRET antibody dilution buffer (Invitrogen, Cat. No. PV3574) was added to stop the enzymatic reaction and produce TR-FRET signals. After 30 minutes of incubation at room temperature, the plate was read in Tecan Infinite F200 Pro with the following settings: Excitation 340 nm (30)/Emission1 495 nm (10)/Emission2 520 nm (25). The TR-FRET values were dimensionless numbers that were calculated as the ratio of the acceptor (Green Fluorescent Protein) signal to the donor (Terbium) signal. Percent of inhibition was calculated as (100%−percentage of compound-treated/DMSO vehicle-treated). The dose-response curves were generated and the IC50s were calculated by nonlinear sigmoid curve fitting using GraphPad Prism.
Sequence (P23458 whole entry, the tested form may be a part): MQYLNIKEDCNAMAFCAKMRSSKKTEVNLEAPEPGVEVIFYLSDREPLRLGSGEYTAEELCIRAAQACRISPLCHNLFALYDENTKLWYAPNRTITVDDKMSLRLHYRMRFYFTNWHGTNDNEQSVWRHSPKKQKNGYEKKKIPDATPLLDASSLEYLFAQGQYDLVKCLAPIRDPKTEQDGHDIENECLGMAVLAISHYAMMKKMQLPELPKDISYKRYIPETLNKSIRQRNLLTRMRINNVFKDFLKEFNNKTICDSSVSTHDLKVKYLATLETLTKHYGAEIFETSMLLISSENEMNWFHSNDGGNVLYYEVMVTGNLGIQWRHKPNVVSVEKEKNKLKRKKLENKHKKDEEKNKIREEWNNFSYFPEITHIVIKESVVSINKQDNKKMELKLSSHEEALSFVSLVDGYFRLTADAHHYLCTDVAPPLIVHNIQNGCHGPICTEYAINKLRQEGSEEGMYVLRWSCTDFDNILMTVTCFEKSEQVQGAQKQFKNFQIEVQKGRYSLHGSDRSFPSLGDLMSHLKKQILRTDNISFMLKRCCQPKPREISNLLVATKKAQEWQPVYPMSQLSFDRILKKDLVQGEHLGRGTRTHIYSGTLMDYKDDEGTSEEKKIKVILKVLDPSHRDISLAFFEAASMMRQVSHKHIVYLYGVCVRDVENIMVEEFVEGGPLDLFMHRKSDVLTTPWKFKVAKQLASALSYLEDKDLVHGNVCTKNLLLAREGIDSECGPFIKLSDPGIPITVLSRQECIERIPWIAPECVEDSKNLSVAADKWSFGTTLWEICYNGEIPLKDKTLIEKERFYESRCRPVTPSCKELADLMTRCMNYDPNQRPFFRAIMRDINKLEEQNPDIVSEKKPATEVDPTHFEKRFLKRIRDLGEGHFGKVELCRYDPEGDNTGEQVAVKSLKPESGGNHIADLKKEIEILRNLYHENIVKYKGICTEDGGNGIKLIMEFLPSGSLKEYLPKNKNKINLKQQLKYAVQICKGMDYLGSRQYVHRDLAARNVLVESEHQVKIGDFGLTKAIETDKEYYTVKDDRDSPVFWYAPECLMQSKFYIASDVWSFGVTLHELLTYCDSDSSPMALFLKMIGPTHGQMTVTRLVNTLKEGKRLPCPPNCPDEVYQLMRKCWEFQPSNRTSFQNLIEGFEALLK
metric: IC50

-- ask Identify measured IC50 corresponding to N#CC1(c2ccc(-c3cccc4nc(NC(=O)C5CC5)cn34)cc2)CC1
-- reply > 5 µM
